Test system: Escherichia coli
Test description: Antimicrobial activity Escherichia coli at 2 mg/mL after 24 hrs by agar diffusion technique
Type: functional
Protocol conditions: read-out: DIZ
Measured metric: zone of inhibition at 2000 µg/mL (mm)

# Molecule, Measured metric, Unit descriptor, Observed result
records = [
    ("O=C(N[C@H](CO)[C@H](O)c1ccc([N+](=O)[O-])cc1)C(Cl)Cl [CHLORAMPHENICOL]", "zone of inhibition at 2000 µg/mL", "mm", 20),
    ("O=C1/C(=N\\c2ccccc2N2C(=O)C3C4c5ccccc5C(c5ccccc54)C3C2=O)C=C(Nc2ccccc2N2C(=O)C3C4c5ccccc5C(c5ccccc54)C3C2=O)c2ccccc21 (stereo not drawn)", "zone of inhibition at 2000 µg/mL", "mm", 17),
    ("Cc1ccc2nc(N3C(=O)C4C5c6ccccc6C(c6ccccc65)C4C3=O)sc2c1 (stereo not drawn)", "zone of inhibition at 2000 µg/mL", "mm", 29),
    ("O=C1C2C3c4ccccc4C(c4ccccc43)C2C(=O)N1c1nc[nH]n1 (stereo not drawn)", "zone of inhibition at 2000 µg/mL", "mm", 15),
    ("Cc1ccc(S(=O)(=O)Oc2ccccc2N2C(=O)C3C4c5ccccc5C(c5ccccc54)C3C2=O)cc1 (stereo not drawn)", "zone of inhibition at 2000 µg/mL", "mm", 18),
    ("O=C1C2C3c4ccccc4C(c4ccccc43)C2C(=O)N1c1ccc(/N=N/c2ccccc2)cc1 (stereo not drawn)", "zone of inhibition at 2000 µg/mL", "mm", 14),
    ("O=C(c1ccc(N2C(=O)C3C4c5ccccc5C(c5ccccc54)C3C2=O)cc1)C(Br)Br (stereo not drawn)", "zone of inhibition at 2000 µg/mL", "mm", 14),
    ("CC(=O)Nc1ccccc1N1C(=O)C2C3c4ccccc4C(c4ccccc43)C2C1=O (stereo not drawn)", "zone of inhibition at 2000 µg/mL", "mm", 16),
]

Reference for the values: ChEMBL document CHEMBL1157049
